# tgt: T1, 2G4P (artificial (RSM derived from human …))
# T1 chain: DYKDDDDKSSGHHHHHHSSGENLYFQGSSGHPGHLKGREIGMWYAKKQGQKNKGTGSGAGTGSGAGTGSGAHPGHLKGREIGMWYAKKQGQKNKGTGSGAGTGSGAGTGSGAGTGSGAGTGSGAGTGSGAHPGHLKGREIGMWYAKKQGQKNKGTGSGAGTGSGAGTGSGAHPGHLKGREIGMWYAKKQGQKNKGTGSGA
# procedure.text: smTIRFM (koff/kon); kon 3.9e9 M-1 s-1, koff 0.62 s-1; EMSA: DNA annealed in 200 mM Tris pH 7.4, 100 mM KCl, 1 mM EDTA; binding 10 min at 25 C, native PAGE; smTIRFM: 100 pM tethered DNA, 100-5000 pM protein, buffer
# run.parameters: protein: recombinant; tags: N-terminal FLAG-6xHis; label: 3' biotin on strand 2; 18 bp duplex with 3' ssDNA tail folded as parallel G4
attribute.measured: pKd
pKd (log units): -log10 of the concentration in mol/L.

*Q* Give pKd for c-MYCG4 (smTIRFM tethering) (mixed) DNA 1: TGGCGACGGCAGCGAGGCTGGGTGGGTAGGGTGGGTTT DNA 2: GCCTCGCTGCCGTCGCCA
*A* 9.80
